Assay: Phase 1 study in subjects with hepatic impairment: pharmacokinetics and protein binding
Assay type: in vivo, humans
Details: human, plasma, Day 5; moderate hepatic impairment; read-out: Cmax (Test Group)
readout-name: Cmax (ng/mL)
Numbers only; they are read as ng/mL.

// lookup Cmax for CC[C@H]1OC(=O)[C@@](C)(F)C(=O)[C@H](C)[C@@H](O[C@@H]2O[C@H](C)C[C@H](N(C)C)[C@H]2O)[C@](C)(OC)C[C@@H](C)C(=O)[C@H](C)[C@H]2N(CCCCn3cc(-c4cccc(N)c4)nn3)C(=O)O[C@]12C
684

The origin of these recorded values is patent US20170165286A1.
